The values you see were collected from ChEMBL document CHEMBL1649165.

System: Fusarium verticillioides
assay.details: Antimicrobial activity against Fusarium verticillioides by broth microdilution method
Assay type: functional
*1 amine or outer side, *2 acyl side, *3 side chain or, on linkers, in order; H or OH if unused. Where a SMILES comes first, the peptide text is derived from it. Bridges are numbered along the chain shown (N, C = ends). [ ]: non-standard residue; d: D form. The star is where a group is joined. hTyr(3S-OH,4S-OH,3'-OSO3H) = N[C@H](C(=O)O)[C@H](O)[C@@H](O)c1ccc(O)c(OS(=O)(=O)O)c1; pTerphenylCO(4''-OnC5H11) = CCCCCOc1ccc(-c2ccc(-c3ccc(C(=O)*)cc3)cc2)cc1; Orn(4R-OH,5R-OH) = O=C([C@H](C[C@@H](O)[C@@H](O)N[*:3])N[*:1])[*:2]; hTyr(3S-OH,4S-OH) = N[C@H](C(=O)O)[C@H](O)[C@@H](O)c1ccc(O)cc1; Pro(3S-OH,4S-Me) = C[C@H]1CN[C@H](C(=O)O)[C@H]1O; X1 = CCCCCOc1ccc(-c2cc(-c3ccc(C(=O)*)cc3)no2)cc1; Gln(3R-OH) = NC(=O)C[C@@H](O)[C@H](N)C(=O)O; Hyp = O=C(O)[C@@H]1C[C@@H](O)CN1
reported.property: MIC90

Record excerpt, results attached:
INPUT: Give the measured MIC90 of CC[C@H](C)C[C@H](C)CCCCCCCCC(=O)N[C@H]1C[C@@H](O)[C@@H](NCCN)NC(=O)[C@@H]2[C@@H](O)CCN2C(=O)[C@H]([C@H](O)CCN)NC(=O)[C@H]([C@H](O)[C@@H](O)c2ccc(O)cc2)NC(=O)[C@@H]2C[C@@H](O)CN2C(=O)[C@H]([C@@H](C)O)NC1=O .
OUTPUT: > 16 µg/mL

INPUT: Name the recorded MIC90 for CCC(C)n1ncn(-c2ccc(N3CCN(c4ccc(OCC5COC(Cn6cncn6)(c6ccc(Cl)cc6Cl)O5)cc4)CC3)cc2)c1=O (configuration not stated) .
OUTPUT: > 8 µg/mL

INPUT: Requested field: MIC90. Item: C[C@@H](c1ncncc1F)[C@](O)(Cn1cncn1)c1ccc(F)cc1F
OUTPUT: > 8 µg/mL

Others:
INPUT: // lookup MIC90 for CCCCCOc1ccc(-c2cc(-c3ccc(C(=O)N[C@H]4C[C@@H](O)[C@@H](O)NC(=O)[C@@H]5[C@@H](O)[C@@H](C)CN5C(=O)[C@H]([C@H](O)CC(N)=O)NC(=O)[C@H]([C@H](O)[C@@H](O)c5ccc(O)c(OS(=O)(=O)O)c5)NC(=O)[C@@H]5C[C@@H](O)CN5C(=O)[C@H]([C@@H](C)O)NC4=O)cc3)no2)cc1 [MICAFUNGIN] (X1-[Orn(4R-OH,5R-OH)]T[Hyp][hTyr(3S-OH,4S-OH,3'-OSO3H)][Gln(3R-OH)][Pro(3S-OH,4S-Me)]; lactam 1-C)
OUTPUT: > 16 µg/mL

INPUT: Record request: MIC90 value, item C[C@@H]1[C@H](O)[C@@H](C)/C=C/C=C/C=C/C=C/C=C/C=C/C=C/[C@H](O[C@@H]2O[C@H](C)[C@@H](O)[C@H](N)[C@@H]2O)C[C@@H]2O[C@](O)(C[C@@H](O)C[C@@H](O)[C@H](O)CC[C@@H](O)C[C@@H](O)CC(=O)O[C@H]1C)C[C@H](O)[C@H]2C(=O)O
OUTPUT: 4 µg/mL

INPUT: Please report the recorded MIC90 for CCCCCOc1ccc(-c2ccc(-c3ccc(C(=O)N[C@H]4C[C@@H](O)[C@@H](O)NC(=O)[C@@H]5[C@@H](O)[C@@H](C)CN5C(=O)[C@H]([C@@H](C)O)NC(=O)[C@H]([C@H](O)[C@@H](O)c5ccc(O)cc5)NC(=O)[C@@H]5C[C@@H](O)CN5C(=O)[C@H]([C@@H](C)O)NC4=O)cc3)cc2)cc1 [ANIDULAFUNGIN] ({pTerphenylCO(4''-OnC5H11)}-[Orn(4R-OH,5R-OH)]T[Hyp][hTyr(3S-OH,4S-OH)]T[Pro(3S-OH,4S-Me)]; lactam 1-C) .
OUTPUT: > 16 µg/mL

INPUT: What value of MIC90 has been recorded for this entry: CC[C@@H]([C@H](C)O)n1ncn(-c2ccc(N3CCN(c4ccc(OC[C@@H]5CO[C@@](Cn6cncn6)(c6ccc(F)cc6F)C5)cc4)CC3)cc2)c1=O
OUTPUT: > 8 µg/mL

---

The entries below come with measured MIC90 values attached.
System: Beauveria bassiana
assay.details: Antimicrobial activity against Beauveria bassiana by broth microdilution method
Type: functional
*1 amine or outer side, *2 acyl side, *3 side chain or, on linkers, in order; H or OH if unused. Where a SMILES comes first, the peptide text is derived from it. Bridges are numbered along the chain shown (N, C = ends). [ ]: non-standard residue; d: D form. The star is where a group is joined. pTerphenylCO(4''-OnC5H11) = CCCCCOc1ccc(-c2ccc(-c3ccc(C(=O)*)cc3)cc2)cc1; Orn(4R-OH,5R-OH) = O=C([C@H](C[C@@H](O)[C@@H](O)N[*:3])N[*:1])[*:2]; hTyr(3S-OH,4S-OH) = N[C@H](C(=O)O)[C@H](O)[C@@H](O)c1ccc(O)cc1; Pro(3S-OH,4S-Me) = C[C@H]1CN[C@H](C(=O)O)[C@H]1O; Hyp = O=C(O)[C@@H]1C[C@@H](O)CN1

# example entries with known answers
INPUT: Suppose we examine the compound CCCCCOc1ccc(-c2ccc(-c3ccc(C(=O)N[C@H]4C[C@@H](O)[C@@H](O)NC(=O)[C@@H]5[C@@H](O)[C@@H](C)CN5C(=O)[C@H]([C@@H](C)O)NC(=O)[C@H]([C@H](O)[C@@H](O)c5ccc(O)cc5)NC(=O)[C@@H]5C[C@@H](O)CN5C(=O)[C@H]([C@@H](C)O)NC4=O)cc3)cc2)cc1 [ANIDULAFUNGIN] ({pTerphenylCO(4''-OnC5H11)}-[Orn(4R-OH,5R-OH)]T[Hyp][hTyr(3S-OH,4S-OH)]T[Pro(3S-OH,4S-Me)]; lactam 1-C) ; what MIC90 value has been reported?
OUTPUT: > 16 µg/mL

INPUT: What MIC90 value was documented for this compound, CC[C@H](C)C[C@H](C)CCCCCCCCC(=O)N[C@H]1C[C@@H](O)[C@@H](NCCN)NC(=O)[C@@H]2[C@@H](O)CCN2C(=O)[C@H]([C@H](O)CCN)NC(=O)[C@H]([C@H](O)[C@@H](O)c2ccc(O)cc2)NC(=O)[C@@H]2C[C@@H](O)CN2C(=O)[C@H]([C@@H](C)O)NC1=O [CASPOFUNGIN] ?
OUTPUT: > 16 µg/mL

Continuing:
INPUT: Please give the measured MIC90 for this compound: CCC(C)n1ncn(-c2ccc(N3CCN(c4ccc(OCC5COC(Cn6cncn6)(c6ccc(Cl)cc6Cl)O5)cc4)CC3)cc2)c1=O (stereo not drawn) [ITRACONAZOLE]
OUTPUT: > 8 µg/mL

---

# key: entry, value: MIC90
assay.details: Antimicrobial activity against Rhizopus microsporus by broth microdilution method
Assay type: functional
*1 amine or outer side, *2 acyl side, *3 side chain or, on linkers, in order; H or OH if unused. Where a SMILES comes first, the peptide text is derived from it. Bridges are numbered along the chain shown (N, C = ends). [ ]: non-standard residue; d: D form. The star is where a group is joined. hTyr(3S-OH,4S-OH,3'-OSO3H) = N[C@H](C(=O)O)[C@H](O)[C@@H](O)c1ccc(O)c(OS(=O)(=O)O)c1; Orn(4R-OH,5R-OH) = O=C([C@H](C[C@@H](O)[C@@H](O)N[*:3])N[*:1])[*:2]; Pro(3S-OH,4S-Me) = C[C@H]1CN[C@H](C(=O)O)[C@H]1O; X1 = CCCCCOc1ccc(-c2cc(-c3ccc(C(=O)*)cc3)no2)cc1; Gln(3R-OH) = NC(=O)C[C@@H](O)[C@H](N)C(=O)O; Hyp = O=C(O)[C@@H]1C[C@@H](O)CN1

INPUT: // query MIC90 value for entry C[C@@H]1[C@H](O)[C@@H](C)/C=C/C=C/C=C/C=C/C=C/C=C/C=C/[C@H](O[C@@H]2O[C@H](C)[C@@H](O)[C@H](N)[C@@H]2O)C[C@@H]2O[C@](O)(C[C@@H](O)C[C@@H](O)[C@H](O)CC[C@@H](O)C[C@@H](O)CC(=O)O[C@H]1C)C[C@H](O)[C@H]2C(=O)O [AMPHOTERICIN B]
OUTPUT: > 16 µg/mL

INPUT: Please give the measured MIC90 for this compound: CCC(C)n1ncn(-c2ccc(N3CCN(c4ccc(OCC5COC(Cn6cncn6)(c6ccc(Cl)cc6Cl)O5)cc4)CC3)cc2)c1=O (stereo not given) [ITRACONAZOLE]
OUTPUT: > 8 µg/mL

INPUT: I have this compound here, CC[C@H](C)C[C@H](C)CCCCCCCCC(=O)N[C@H]1C[C@@H](O)[C@@H](NCCN)NC(=O)[C@@H]2[C@@H](O)CCN2C(=O)[C@H]([C@H](O)CCN)NC(=O)[C@H]([C@H](O)[C@@H](O)c2ccc(O)cc2)NC(=O)[C@@H]2C[C@@H](O)CN2C(=O)[C@H]([C@@H](C)O)NC1=O [CASPOFUNGIN] , and I need its recorded MIC90.
OUTPUT: > 16 µg/mL

INPUT: Report MIC90 for CCCCCOc1ccc(-c2cc(-c3ccc(C(=O)N[C@H]4C[C@@H](O)[C@@H](O)NC(=O)[C@@H]5[C@@H](O)[C@@H](C)CN5C(=O)[C@H]([C@H](O)CC(N)=O)NC(=O)[C@H]([C@H](O)[C@@H](O)c5ccc(O)c(OS(=O)(=O)O)c5)NC(=O)[C@@H]5C[C@@H](O)CN5C(=O)[C@H]([C@@H](C)O)NC4=O)cc3)no2)cc1 [MICAFUNGIN] (X1-[Orn(4R-OH,5R-OH)]T[Hyp][hTyr(3S-OH,4S-OH,3'-OSO3H)][Gln(3R-OH)][Pro(3S-OH,4S-Me)]; lactam 1-C) please.
OUTPUT: > 16 µg/mL

Below: the item to evaluate.
INPUT: I would be grateful if you could share the reported MIC90 for C[C@@H](c1ncncc1F)[C@](O)(Cn1cncn1)c1ccc(F)cc1F [VORICONAZOLE] .
OUTPUT: > 8 µg/mL
